# METHOD: Evaluation of pharmacokinetic profile: plasma and brain concentrations after oral dosing
# Format: in vivo, Wistar rats
# CONDITION_DETAILS: male, Wistar; rat, 10 mg/kg po, brain, 1 h post-dosing; read-out: Cbr (ng/g) at 1 h
Task for the reader: assign each of the following molecules its reported concentration at 1 h.
Numbers only, in ng/g.

// worked examples, concentration at 1 h included
1) Cl.Fc1cc(F)c(F)c([C@H]2Cc3c(CCN4CCOCC4)[nH]c(=S)n3C2)c1F [Example 199, Hydrochloride]: 45
2) NC(=O)Cc1[nH]c(=S)n2c1[C@@H]1C[C@]1(c1cc(Cl)ccc1F)C2: 20
3) O=C(Cc1[nH]c(=S)n2c1[C@@H]1C[C@]1(c1cc(Cl)ccc1F)C2)N1CCOCC1: 0

Okay, now this molecule:
// query Could you tell me which concentration at 1 h is on file for Cn1c(CC(=O)N[C@@H]2CCOC2)c2n(c1=S)C[C@H](c1c(F)ccc(Br)c1F)C2 ?
// result 24

Origin of values: patent US11434242B2
